target: KRas^G12D (Homo sapiens, UniProt P01116, G12D); construct: […]; biotin (biotinylated); assay: KRas binding assay (TR-FRET displacement of Cy5 labelled tracer)
Sequence (P01116 1-169 isoform P01116-2 G12D): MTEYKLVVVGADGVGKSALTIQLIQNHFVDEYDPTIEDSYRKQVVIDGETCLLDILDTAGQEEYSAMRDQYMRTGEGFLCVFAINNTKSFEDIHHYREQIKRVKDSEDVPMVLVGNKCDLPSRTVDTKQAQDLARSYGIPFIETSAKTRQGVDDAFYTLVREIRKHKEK
pIC50: −log10 of the molar value.
experimental-endpoint: pIC50

Exercise: Return pIC50 (reported value) for this molecule: CCc1c(F)ccc2cc(O)cc(N3CCc4c(nc(OC[C@@]56CCCN5C[C@H](F)C6)nc4N4CCCn5nc(C(=O)N6CCCC6)cc5C4)C3)c12 [Example 191]
Solution: ≥ 8.70

Exercise: Return pIC50 (reported value) for this molecule: CCc1c(F)ccc2cc(O)cc(N3CCc4c(nc(OC[C@@]56CCCN5C[C@H](F)C6)nc4N4CCCn5nc(C(=O)N(C)C)c(F)c5C4)C3)c12 [Example 190]
Solution: ≥ 8.70

Exercise: Return pIC50 (reported value) for this molecule: CCc1c(F)ccc2cc(O)cc(N3CCc4c(nc(OCC5(CN(C)C)CC5)nc4N4CCCC5(C4)NC(=O)NC5=O)C3)c12 (stereo not drawn) [Example 201]
Solution: ≥ 8.70

###

molecular target: KRas^Q61H (Homo sapiens, UniProt P01116, Q61H); test: biochemical
Sequence (P01116 1-169 isoform P01116-2 Q61H): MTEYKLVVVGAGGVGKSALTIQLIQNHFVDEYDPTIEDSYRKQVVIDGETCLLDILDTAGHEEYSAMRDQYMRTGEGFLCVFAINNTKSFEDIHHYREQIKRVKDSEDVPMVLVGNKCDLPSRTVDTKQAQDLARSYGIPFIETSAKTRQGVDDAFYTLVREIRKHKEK
Give measured pIC50 for each item. Keep answers brief.
// field semantics: pIC50 = negative decimal log of concentration (mol/L)

Exercise: Return pIC50 (reported value) for this molecule: CCc1cccc2cccc(N3CCc4c(nc(OCC56CCCN5CCC6)nc4NC[C@H]4CCC(=O)N4)C3)c12 [Example 148]
Solution: 5.11

Exercise: Return pIC50 (reported value) for this molecule: CCc1cccc2cccc(N3CCc4c(nc(OCC56CCCN5CCC6)nc4N4CCCn5nc(N)cc5C4)C3)c12 [Example 10]
Solution: 6.54

Exercise: Return pIC50 (reported value) for this molecule: CCc1cccc2cccc(N3CCc4c(nc(OCC56CCCN5CCC6)nc4N4CCC(O)C(CO)CC4)C3)c12 (stereo not shown) [Example 13]
Solution: 7.24

Exercise: Return pIC50 (reported value) for this molecule: CCc1cccc2cccc(N3CCc4c(nc(OCC56CCCN5CCC6)nc4N(C)CC(C)(C)O)C3)c12 [Example 113]
Solution: 6.28

Exercise: Return pIC50 (reported value) for this molecule: CCc1cccc2cccc(N3CCc4c(nc(OCC56CCCN5CCC6)nc4N4CCCCCC4)C3)c12 [Example 49]
Solution: 6.15

Exercise: Return pIC50 (reported value) for this molecule: CCc1cccc2cccc(N3CCc4c(nc(OCC56CCCN5CCC6)nc4N4C[C@@H]5C(=O)NC(=O)[C@@H]5C4)C3)c12 [Example 11]
Solution: 7.30

Exercise: Return pIC50 (reported value) for this molecule: CCc1cccc2cccc(N3CCc4c(nc(OCC56CCCN5CCC6)nc4NC4CC5CC5C4)C3)c12 (stereo not shown) [Example 170]
Solution: 4.77

Exercise: Return pIC50 (reported value) for this molecule: CCc1cccc2cccc(N3CCc4c(nc(OCC56CCCN5CCC6)nc4N4CCCC(c5ccn[nH]5)C4)C3)c12 (stereo not shown) [Example 115]
Solution: 5.92

Exercise: Return pIC50 (reported value) for this molecule: CCc1cccc2cccc(N3CCc4c(nc(OCC56CCCN5CCC6)nc4N4CCCC(N5CCCS5(=O)=O)C4)C3)c12 (stereo not shown) [Example 85]
Solution: 6.67

Exercise: Return pIC50 (reported value) for this molecule: O=C1NC(=O)C2CN(c3nc(OCC45CCCN4CCC5)nc4c3CCN(c3cccc5cccc(Cl)c35)C4)CC12 (stereo not shown) [Example 79]
Solution: 6.82

Exercise: Return pIC50 (reported value) for this molecule: CCc1cccc2cccc(N3CCc4c(nc(OCC56CCCN5CCC6)nc4NC4CCc5ncsc5C4)C3)c12 (stereo not shown) [Example 168]
Solution: 4.84

Exercise: Return pIC50 (reported value) for this molecule: CCc1cccc2cccc(N3CCc4c(nc(OCC56CCCN5CCC6)nc4N4CCCC(c5cc(=O)[nH][nH]5)C4)C3)c12 (stereo not shown) [Example 87]
Solution: 6.07

Exercise: Return pIC50 (reported value) for this molecule: CCc1cccc2cccc(N3CCc4c(nc(OCC56CCCN5CCC6)nc4NCCNS(N)(=O)=O)C3)c12 [Example 160]
Solution: 4.96

Exercise: Return pIC50 (reported value) for this molecule: Cc1cccc2cccc(N3CCc4c(nc(OCC56CCCN5CCC6)nc4N4CC5C(=O)NC(=O)C5C4)C3)c12 (stereo not shown) [Example 80]
Solution: 6.59

Exercise: Return pIC50 (reported value) for this molecule: CCc1cccc2cccc(N3CCc4c(nc(OCC56CCCN5CCC6)nc4N4CCCC(c5nc(=O)[nH][nH]5)C4)C3)c12 (stereo not shown) [Example 104]
Solution: 5.70

Exercise: Return pIC50 (reported value) for this molecule: CCc1cccc2cccc(N3CCc4c(nc(OCC56CCCN5CCC6)nc4N4CCC(O)C(CO)C4)C3)c12 (stereo not shown) [Example 109]
Solution: 6.05

Exercise: Return pIC50 (reported value) for this molecule: CCc1cccc2cccc(N3CCc4c(nc(OCC56CCCN5CCC6)nc4N4CC5CC(O)CC4C5)C3)c12 (stereo not shown) [Example 41]
Solution: 6.16

Exercise: Return pIC50 (reported value) for this molecule: CCc1cccc2cccc(N3CCc4c(nc(OCC56CCCN5CCC6)nc4N4CCCn5nc(CO)cc5C4)C3)c12 [Example 8]
Solution: 6.25

Exercise: Return pIC50 (reported value) for this molecule: CCc1cccc2cccc(N3CCc4c(nc(OCC56CCCN5CCC6)nc4N4CCCC(c5nnc6n5CCC6)C4)C3)c12 (stereo not shown) [Example 106]
Solution: 5.84

Exercise: Return pIC50 (reported value) for this molecule: CCc1cccc2cccc(N3CCc4c(nc(OCC56CCCN5CCC6)nc4N4CCOC5(CCSC5)C4)C3)c12 (stereo not shown) [Example 130]
Solution: 6.02

Exercise: Return pIC50 (reported value) for this molecule: CCc1cccc2cccc(N3CCc4c(nc(OCC56CCCN5CCC6)nc4N4CC5(CNC(=O)N5)C4)C3)c12 [Example 149]
Solution: 5.20

Exercise: Return pIC50 (reported value) for this molecule: CCc1cccc2cccc(N3CCc4c(nc(OCC56CCCN5CCC6)nc4N4CC(C)CC(C(N)=O)C4)C3)c12 (stereo not shown) [Example 105]
Solution: 6.22

Exercise: Return pIC50 (reported value) for this molecule: CCc1cccc2cccc(N3CCc4c(nc(OCC56CCCN5CCC6)nc4NC4CN(C(N)=O)C4)C3)c12 [Example 147]
Solution: 5.49

Exercise: Return pIC50 (reported value) for this molecule: CCc1cccc2cccc(N3CCc4c(nc(OCC56CCCN5CCC6)nc4N4CCCc5ncccc5C4)C3)c12 [Example 55]
Solution: 5.34

Exercise: Return pIC50 (reported value) for this molecule: CCc1cccc2cccc(N3CCc4c(nc(OCC56CCCN5CCC6)nc4NCCS(=O)(=O)N=S(C)(C)=O)C3)c12 [Example 165]
Solution: 5.18

Exercise: Return pIC50 (reported value) for this molecule: CCc1cccc2cccc(N3CCc4c(nc(OCC56CCCN5CCC6)nc4N4CCCC(CO)CC4)C3)c12 (stereo not shown) [Example 107]
Solution: 6.28

Exercise: Return pIC50 (reported value) for this molecule: CCc1cccc2cccc(N3CCc4c(nc(OCC56CCCN5CCC6)nc4N4CCn5ncc(S(C)(=O)=O)c5C4)C3)c12 [Example 144]
Solution: 4.97
